# Test system: SF-539 CNS
# experiment: NCI tumour cell line growth inhibition, 48 h; in the data active = GI50 below about 0.43 µM; inactive = the rest
Outcome codes: True for active, False for inactive

{"columns": ["compound", "answer_label"],
 "data": [
  ["O=C1c2c(c3c4ccccc4n(CCCCCCN4CCOCC4)c3c3[nH]c4ccccc4c23)C(=O)N1O", "False"],
  ["COc1ccc2c(c1)C(=O)/C(=C/c1cccc(OCC(=O)c3ccc([N+](=O)[O-])cc3)c1)CO2", "False"],
  ["CCN(CC)CCOc1ccc(NC(=O)C(C(C)C)N2C(=O)/C(=C/c3ccc(Br)cc3)SC2=S)cc1 (stereo not given)", "False"],
  ["COc1ccc(C(=O)/C=C/c2c(C(F)(F)F)nc3ccccn23)cc1OC", "False"],
  ["NCCNc1ccc(NCCN)c2c1C(=O)c1c(O)ccc(O)c1C2=O", "True"],
  ["O=C(Nc1cccc(-n2ccc3c(NC(=O)c4ccccc4)nccc32)c1)c1ccc(Cl)c(Cl)c1", "True"],
  ["Fc1ccc(-c2c(-c3ccncc3)[nH]c3cccnc23)cc1", "False"],
  ["CN(C)c1ccc(/C=N/n2c(CCCCc3n[nH]c(=S)n3/N=C/c3ccc(N(C)C)cc3)n[nH]c2=S)cc1", "False"],
  ["O=C(CS(=O)c1nc2ccccc2nc1-c1ccccc1)Nc1ccc(Cl)cc1 (stereo not given)", "False"],
  ["Oc1ccccc1/C=N\\Nc1ccccc1", "False"]
]}

---

# Test system: XF 498 CNS
# experiment: NCI tumour cell line growth inhibition, 48 h
value_kind: TGI (µM)

{"columns": ["molecule", "unit_spec", "prefix_operator", "readout_number"],
 "data": [
  ["CCCCCC1CC=CC(NC(=O)OCc2ccccc2)C1/C=C/CCCC1OCCO1 (stereo not drawn)", "µM", ">", 100],
  ["CCC1=CCC(P(=O)(c2ccccc2)c2ccccc2)CC1C (stereo not drawn)", "µM", ">", 100],
  ["CCCCCCCCCCCCCC(=O)NO", "µM", "=", 60.3],
  ["CC1(C)C=C(N2CCN(C3=CC(C)(C)NC(C)(C)C3)CC2)CC(C)(C)N1", "µM", ">", 100],
  ["CCC/C=C/C=C\\C(=O)O[C@@H]1[C@@H](C)[C@]2(O)[C@@H]3C=C(C)C(=O)[C@H]3CC(COC(C)=O)=C[C@H]2[C@@H]2C(C)(C)[C@]12OC(C)=O", "µM", "=", 16.7],
  ["C[N+]1(C)C/C(=C\\C=C\\c2ccccc2)C(=O)/C(=C/C=C/c2ccccc2)C1", "µM", "=", 57.4],
  ["NCCNc1ccc(NCCN)c2c1C(=O)c1c(O)ccc(O)c1C2=O", "µM", "=", 0.298],
  ["COc1ccc(OC)c(CCc2ccccc2CC(=O)O)c1", "µM", ">", 100],
  ["C=C(C)C1CC=C(C)C(O)([C@@]2(O)C[C@H](C(=C)C)CC=C2C)C1 (stereo partly drawn)", "µM", "=", 29.7],
  ["CN(CO)c1nc(N(C)CO)nc(N(C)CO)n1", "µM", "=", 12.8],
  ["COc1ccccc1/C=C1\\CCC(CN2CCOCC2)C1=O (stereo not drawn)", "µM", "=", 30.1],
  ["COC(=O)/C(=N\\Nc1nc(=S)[nH]n1N)C(C#N)c1ccc(Cl)cc1 (stereo not drawn)", "µM", ">", 100],
  ["COc1ccccc1NC(=O)C(=O)C(c1cnc2ccc([N+](=O)[O-])cc2n1)[N+](=O)[O-] (stereo not drawn)", "µM", ">", 100]
]}

---

# System: SNB-19 CNS
# experiment: NCI tumour cell line growth inhibition, 48 h
Each entry below carries its reported GI50.

{"columns": ["compound", "system_tested", "GI50"],
 "data": [
  ["COc1ccc(Cl)cc1Nc1nc(C(F)(F)F)ccc1C(=O)N/N=C/c1ccccc1Cl", "SNB-19 CNS", "2.34 µM"],
  ["CCN(CC)CCOc1ccc(NC(=O)C(C(C)C)N2C(=O)/C(=C/c3ccc(Br)cc3)SC2=S)cc1 (centres undefined)", "SNB-19 CNS", "2.3 µM"],
  ["CCCn1cc(/C=N\\N=C2\\C(=O)Nc3ccc(C)cc32)c2ccccc21", "SNB-19 CNS", "4.24 µM"],
  ["C=C1C(=O)O[C@H]2[C@H]1CC/C(CNC(=O)C(C)c1ccc(CC(C)C)cc1)=C\\CC[C@@]1(C)O[C@@H]21 (some centres undefined)", "SNB-19 CNS", "2.15 µM"],
  ["N#Cc1ccc(O)c(C2=NCC(c3ccc(-c4ccccc4)cc3)O2)c1 (centres undefined)", "SNB-19 CNS", "0.489 µM"],
  ["CN(CO)c1nc(N(C)CO)nc(N(C)CO)n1", "SNB-19 CNS", "29.8 µM"],
  ["Cc1cc(C(=O)CC(Cl)=C(Cl)Cl)c(Cl)cc1Cl", "SNB-19 CNS", "35.4 µM"],
  ["COc1ccc2[nH]cc(Cc3c[nH]c4ccc(OC)cc34)c2c1", "SNB-19 CNS", "29.3 µM"],
  ["CCc1c2c(nc3ccc(OC(=O)OCc4ccc(B5OC(C)(C)C(C)(C)O5)cc4)cc13)-c1cc3c(c(=O)n1C2)COC(=O)[C@]3(O)CC", "SNB-19 CNS", "< 0.01 µM"]
]}

---

# Tested on: OVCAR-5 ovarian
# experiment: NCI tumour cell line growth inhibition, 48 h
Measured TGI of individual entries
value_kind: TGI

{"columns": ["compound", "result"],
 "data": [
  ["CCOC(=O)c1cc(C2CCN(Cc3ccccc3)C2=O)c(C(=O)/C=C(/C)N)[nH]1 (stereo unspecified)", "> 100 µM"],
  ["CN(CCCCCCCCNc1ccnc2ccccc12)Cc1ccc(-c2ccc(-c3ccc(C#N)cc3)s2)cc1", "2.73 µM"],
  ["Cc1ccc(C(CCO)CCO)nc1", "> 100 µM"],
  ["O=[N+]([O-])c1ccc(C2NC(=S)NC3c4cc([N+](=O)[O-])ccc4CCCC23)cc1 (stereo unspecified)", "> 100 µM"],
  ["COc1ccc(-c2ccc(-c3ccc(C(=N)N)cc3)s2)cc1Cl", "2.88 µM"],
  ["CCc1cc2c(Nc3ccccc3)c3c(nc2s1)CCCC3", "> 100 µM"]
]}

---

# System: OVCAR-8 ovarian
# experiment: NCI tumour cell line growth inhibition, 48 h

{"columns": ["compound", "prefix_operator", "TGI, µM"],
 "data": [
  ["O=C(N/N=C/c1cc(Cl)cc(Cl)c1[O-])c1ccccc1O.O=C(N/N=C/c1cc(Cl)cc(Cl)c1[O-])c1ccccc1O.[Fe+2]", "=", 34.3],
  ["Fc1ccc(-c2c(-c3ccncc3)[nH]c3cccnc23)cc1", ">", 25],
  ["O=C1/C=C/[C@@H](O)[C@@H]2C[C@@H](O)C[C@H]2/C=C/CCC[C@H](CCc2ccc(NC(=S)Nc3ccc4c(c3)C(=O)OC43c4ccc(O)cc4Oc4cc(O)ccc43)cc2)O1", ">", 100],
  ["O=C(O)C1Cc2[nH]c3ccccc3c2C2CCCC12 (centres undefined)", ">", 100],
  ["O=C(OCC1CC(C2(O)CCCCC2)C(=O)O1)c1ccccc1 (centres undefined)", ">", 100],
  ["O=C1Nc2n[nH]c(=S)n2NC12c1ccccc1-c1ccccc12", ">", 100],
  ["COc1cc2c(c(OC)c1)C(=O)C(=O)C(CC1(C)OCCCO1)=C2", "=", 28.6],
  ["C[C@H]1[C@H](C)CC[C@]2(C(=O)O)CCC3(COC(=O)/C=C/c4ccc(O)cc4)C(=CCC4[C@@]5(C)CC[C@H](O)C(C)(C)C5CC[C@]43C)[C@H]12 (some centres undefined)", "=", 26.5],
  ["CCN(CC)CCCNC(=O)c1ccccc1Nc1c(Cl)cccc1Cl", "=", 31.6]
]}

---

# Test system: HOP-92 NSCLC
# experiment: NCI tumour cell line growth inhibition, 48 h
Where a SMILES comes first, the peptide text is derived from it. Bridges are numbered along the chain shown (N, C = ends).
value_kind: log10 of TGI (log10 of the value in µM)

{"columns": ["molecule", "system_tested", "log10 of TGI"],
 "data": [
  ["CN(CCCCCCCCNc1ccnc2ccccc12)Cc1ccc(-c2ccc(-c3ccc(C#N)cc3)s2)cc1", "HOP-92 NSCLC", 0.40],
  ["CCC(C)C1NC(=O)C(CC(C)C)NC(=O)C(C(C)C)NC(=O)C2CSSCC(NC1=O)C(=O)N2 (centres undefined) (cyclo(CCVLI); disulfide 1-2; configuration not given here)", "HOP-92 NSCLC", -0.61],
  ["CCCc1cn2c(/C=N/N=C(N)N)c(-c3ccc([N+](=O)[O-])cc3)nc2s1", "HOP-92 NSCLC", 1.87],
  ["CN1CCN(C(=O)[C@@]2(C)CC[C@]3(C)CC[C@]4(C)C(=CC[C@@H]5[C@@]6(C)CC[C@H](OC(=O)c7cccnc7)C(C)(C)[C@@H]6CC[C@]54C)[C@@H]3C2)CC1", "HOP-92 NSCLC", 0.51],
  ["O=[N+]([O-])c1cc(C(F)(F)F)cc2n[se]nc12", "HOP-92 NSCLC", 0.71],
  ["C[n+]1ccc2/c(=C\\C#N)c3ccccc3n21", "HOP-92 NSCLC", 1.80],
  ["CCCCNP1(NCCCC)=NP(NCCCC)(NCCCC)=NP(NCCCC)(NCCCC)=NP(NCCCC)(NCCCC)=N1", "HOP-92 NSCLC", -0.04],
  ["Cc1cc2nc3c(C#N)c4c(c(Cl)n3c2cc1C)CCC4", "HOP-92 NSCLC", 1.98],
  ["CCCn1cc(/C=N\\N=C2\\C(=O)Nc3ccc(C)cc32)c2ccccc21", "HOP-92 NSCLC", 0.82],
  ["C=C(C)C1CC=C(C)C(O)([C@@]2(O)C[C@H](C(=C)C)CC=C2C)C1 (some centres undefined)", "HOP-92 NSCLC", 1.61],
  ["O=C(N/N=C/c1cc(Cl)cc(Cl)c1[OH2+])c1ccncc1.O=S(=O)([O-])[O-].[Fe+2]", "HOP-92 NSCLC", 0.98]
]}
